Target: human TRPC6 (Homo sapiens, UniProt Q9Y210)
Construct: expressed in transfected cells; host or cells: HEK 293
Sequence (Q9Y210 1-931): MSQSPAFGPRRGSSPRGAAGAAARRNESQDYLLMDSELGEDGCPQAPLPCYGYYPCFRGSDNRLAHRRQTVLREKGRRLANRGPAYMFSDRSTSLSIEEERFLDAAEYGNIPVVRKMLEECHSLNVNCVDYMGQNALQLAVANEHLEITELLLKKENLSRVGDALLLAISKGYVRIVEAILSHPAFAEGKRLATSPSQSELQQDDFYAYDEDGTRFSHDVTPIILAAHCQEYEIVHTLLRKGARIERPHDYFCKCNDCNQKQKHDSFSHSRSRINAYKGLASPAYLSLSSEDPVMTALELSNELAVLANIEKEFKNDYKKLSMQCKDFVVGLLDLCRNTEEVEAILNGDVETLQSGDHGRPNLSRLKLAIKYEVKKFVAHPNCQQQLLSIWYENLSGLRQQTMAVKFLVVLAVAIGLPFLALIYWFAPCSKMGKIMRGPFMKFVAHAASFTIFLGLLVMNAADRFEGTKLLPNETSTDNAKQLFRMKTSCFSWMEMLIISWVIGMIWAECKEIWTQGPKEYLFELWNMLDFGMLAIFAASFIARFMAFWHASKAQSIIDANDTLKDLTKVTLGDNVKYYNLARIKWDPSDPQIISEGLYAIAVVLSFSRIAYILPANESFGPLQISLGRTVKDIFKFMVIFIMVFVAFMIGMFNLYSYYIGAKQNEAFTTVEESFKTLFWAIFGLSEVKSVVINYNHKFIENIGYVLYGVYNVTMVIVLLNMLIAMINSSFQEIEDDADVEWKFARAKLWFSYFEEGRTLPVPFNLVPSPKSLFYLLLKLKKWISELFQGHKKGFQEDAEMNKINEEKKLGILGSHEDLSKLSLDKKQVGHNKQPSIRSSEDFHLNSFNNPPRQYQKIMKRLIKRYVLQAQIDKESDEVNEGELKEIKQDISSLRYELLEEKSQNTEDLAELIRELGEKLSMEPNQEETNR
Test: TRPC6 fluorescence-based assay (Ca2+ flux assay in FLIPR format), cells overexpressing TRPC6
Assay type: cell-based
Details: 5 μM of test compound, following Carbachol stimulation
Outcome Measure: inhibition at 5 µM (%)

Molecule: CCC(CC)c1nc2ccccc2n1Cc1ccccc1
inhibition at 5 µM [%]: 35.3
//
Molecule: Cc1cc(NC(=O)Cn2c(NCc3ccccc3)nc3ccccc32)no1
inhibition at 5 µM [%]: 22.8
//
Molecule: Cc1nc2ccccc2n1CC(=O)Nc1ccc(Cl)cc1
inhibition at 5 µM [%]: 70
//
Molecule: CC(NCc1nc2ccccc2n1C)C12CC3CC(CC(C3)C1)C2 (stereo not drawn)
inhibition at 5 µM [%]: 69.7

I. COc1ccccc1CNc1nc2ccccc2n1C(C)C
II. CCCCn1c(NCc2nc3ccccc3n2C)nc2ccccc21
Qu. For the two items I and II , which reports the higher inhibition at 5 µM value? # answer = label of selected item
Ans. I
(I: 53.9%, II: 30.4%)

Values from patent US20200377505A1
